Tested on: NCI-H460 tumor-bearing mice (lung cancer)
Experimental details: Biodistribution: lutetium accumulation in tumor, plasma and healthy tissues by ICP-MS
Type: in vivo
Measurement context: second table; tumor; 24 h
Quick reference: Tumor uptake, % ID/g, 24 h of the listed items.
Express it in % ID/g; write the number only.

Examples from the recorded data:
Sample smiles	Target of assay	Quantity unit	Readout value
CCNC(=O)c1nnc(-c2cc(C(C)C)c(O)cc2O)n1-c1ccc(CC2CCN(C(=O)CCOCCOCCOCCOCCNC(=O)[C@H](CCCCNC(=O)CCCc3ccc(I)cc3)NC(=O)CN(CC)CCN3CCN4CCN(C)CC(=O)[O][Lu]([O]C(=O)C4)[O]C(=O)C3)CC2)cc1	NCI-H460 tumor-bearing mice (lung cancer)	% ID/g	8.21
CCNC(=O)c1nnc(-c2cc(C(C)C)c(O)cc2O)n1-c1ccc(OC2CCN(C(=O)CCOCCOCCOCCOCCOCCOCCOCCOCCOCCOCCOCCOCCNC(=O)[C@H](CCCCNC(=O)CCCc3ccc(I)cc3)NC(=O)CN3CCN4CCN5CCN(CC3)CC(=O)[O][Lu]([O]C(=O)C4)[O]C(=O)C5)CC2)cc1	NCI-H460 tumor-bearing mice (lung cancer)	% ID/g	12.05
CCNC(=O)c1nnc(-c2cc(C(C)C)c(O)cc2O)n1-c1ccc(OC2CCN(C(=O)CCOCCOCCOCCOCCNC(=O)[C@H](CCCCNC(=O)CCCc3ccc(I)cc3)NC(=O)CN3CCN4CCN5CCN(CC3)CC(=O)[O][Lu]([O]C(=O)C4)[O]C(=O)C5)CC2)cc1	NCI-H460 tumor-bearing mice (lung cancer)	% ID/g	3.40
CCNC(=O)c1nnc(-c2cc(C(C)C)c(O)cc2O)n1-c1ccc(CC2CCN(C(=O)C[C@H](NC(=O)CN3CCN4CCN5CCN(CC3)CC(=O)[O][Lu]([O]C(=O)C4)[O]C(=O)C5)C(=O)N[C@H](C)C(=O)N3CCC(Cc4ccc(-n5c(C(=O)NCC)nnc5-c5cc(C(C)C)c(O)cc5O)cc4)CC3)CC2)cc1	NCI-H460 tumor-bearing mice (lung cancer)	% ID/g	7.50

# get_value(readout='Tumor uptake, % ID/g, 24 h', item= `CCNC(=O)c1nnc(-c2cc(C(C)C)c(O)cc2O)n1-c1ccc(CC2CCN(C(=O)CCOCC(COCCC(=O)N3CCC(Cc4ccc(-n5c(C(=O)NCC)nnc5-c5cc(C(C)C)c(O)cc5O)cc4)CC3)NC(=O)CC[C@H](C(=O)O)N3CCN4CCN5CCN(CC3)CC(=O)[O][Lu]([O]C(=O)C5)[O]C(=O)C4)CC2)cc1` )
5.86

Record: `CCNC(=O)c1nnc(-c2cc(C(C)C)c(O)cc2O)n1-c1ccc(CC2CCN(C(=O)CCOCCOCCOCCOCCOCCOCCOCCOCCOCCOCCOCCOCCNC(=O)CN3CCN4CCN5CCN(CC3)CC(=O)[O][Lu]([O]C(=O)C4)[O]C(=O)C5)CC2)cc1`
4.43

Record: `CCNC(=O)c1nnc(-c2cc(C(C)C)c(O)cc2O)n1-c1ccc(CC2CCN(C(=O)C[C@H](NC(=O)CC[C@H](C(=O)O)N3CCN4CCN5CCN(CC3)CC(=O)[O][Lu]([O]C(=O)C5)[O]C(=O)C4)C(=O)N[C@H](C)C(=O)N3CCC(Cc4ccc(-n5c(C(=O)NCC)nnc5-c5cc(C(C)C)c(O)cc5O)cc4)CC3)CC2)cc1`
8.01

----------
Test system: NCI-H460 tumor-bearing mice (lung cancer)
Experimental details: Biodistribution: lutetium accumulation in tumor, plasma and healthy tissues by ICP-MS
Type: in vivo
Measurement context: 0.5 mg/kg lutetium conjugate; H460 tumor; 24 h
Readout: % ID/g uptake, H460 tumor, 24 h (% ID/g)
Express it in % ID/g; write the number only.

Examples from the recorded data:
Sample smiles	Readout	Quantity unit	Readout value
CCNC(=O)c1nnc(-c2cc(C(C)C)c(O)cc2O)n1-c1ccc(OC2CCN(C(=O)CCNC(=O)[C@@H](CCC(=O)O)NC(=O)[C@@H](CCC(=O)O)NC(=O)[C@@H](CCC(=O)O)NC(=O)COCCOCCNC(=O)[C@H](CCCCNC(=O)CC[C@H](C(=O)O)N3CCN4CCN5CCN(CC3)CC(=O)[O][Lu]([O]C(=O)C5)[O]C(=O)C4)NC(=O)CCCc3ccc(I)cc3)CC2)cc1	% ID/g uptake, H460 tumor, 24 h	% ID/g	6.37
CCNC(=O)c1nnc(-c2cc(C(C)C)c(O)cc2O)n1-c1ccc(OC2CCN(C(=O)CCNC(=O)[C@@H](CCC(=O)N3CCC(Oc4ccc(-n5c(C(=O)NCC)nnc5-c5cc(C(C)C)c(O)cc5O)cc4)CC3)NC(=O)CC[C@H](C(=O)O)N3CCN4CCN5CCN(CC3)CC(=O)[O][Lu]([O]C(=O)C5)[O]C(=O)C4)CC2)cc1	% ID/g uptake, H460 tumor, 24 h	% ID/g	7.00

Alright, here's another compound for you.
# get_value(readout='% ID/g uptake, H460 tumor, 24 h', item= `CCNC(=O)c1nnc(-c2cc(C(C)C)c(O)cc2O)n1-c1ccc(CN2CCN(C(=O)CCNC(=O)[C@@H](CCC(=O)N3CCN(Cc4ccc(-n5c(C(=O)NCC)nnc5-c5cc(C(C)C)c(O)cc5O)cc4)CC3)NC(=O)CCNC(=O)[C@@H](CCC(=O)O)NC(=O)[C@@H](CCC(=O)O)NC(=O)[C@@H](CCC(=O)O)NC(=O)COCCOCCNC(=O)CNC(=O)[C@H](CCCCN)NC(=O)CNC(=O)CC[C@H](C(=O)O)N3CCN4CCN5CCN(CC3)CC(=O)[O][Lu]([O]C(=O)C5)[O]C(=O)C4)CC2)cc1` )
2.43

----------
System: NCI-H460 tumor-bearing mice (lung cancer)
Experimental details: Biodistribution: lutetium accumulation in tumor, plasma and healthy tissues by ICP-MS
Format: in vivo
Measurement context: 0.5 mg/kg lutetium conjugate; kidney; 24 h
Tag: fulfilled if measured % ID/g uptake, Kidney, 24 h is not below 10 % ID/g, not fulfilled if it is.

Solved entries:
Sample smiles	Assigned category
CCNC(=O)c1nnc(-c2cc(C(C)C)c(O)cc2O)n1-c1ccc(CN2CCN(C(=O)CCNC(=O)[C@@H](CCC(=O)N3CCN(Cc4ccc(-n5c(C(=O)NCC)nnc5-c5cc(C(C)C)c(O)cc5O)cc4)CC3)NC(=O)CCNC(=O)[C@@H](CCC(=O)O)NC(=O)[C@@H](CCC(=O)O)NC(=O)[C@@H](CCC(=O)O)NC(=O)COCCOCCNC(=O)[C@H](Cc3ccccc3)NC(=O)CNC(=O)CNC(=O)CC[C@H](C(=O)O)N3CCN4CCN5CCN(CC3)CC(=O)[O][Lu]([O]C(=O)C5)[O]C(=O)C4)CC2)cc1	not fulfilled
CCNC(=O)c1nnc(-c2cc(C(C)C)c(O)cc2O)n1-c1ccc(CN2CCN(C(=O)CCNC(=O)[C@@H](CCC(=O)N3CCN(Cc4ccc(-n5c(C(=O)NCC)nnc5-c5cc(C(C)C)c(O)cc5O)cc4)CC3)NC(=O)CCNC(=O)[C@@H](CCC(=O)O)NC(=O)[C@@H](CCC(=O)O)NC(=O)[C@@H](CCC(=O)O)NC(=O)COCCOCCNC(=O)CC[C@H](C(=O)O)N3CCN4CCN5CCN(CC3)CC(=O)[O][Lu]([O]C(=O)C5)[O]C(=O)C4)CC2)cc1	not fulfilled
CCNC(=O)c1nnc(-c2cc(C(C)C)c(O)cc2O)n1-c1ccc(OC2CCN(C(=O)CCNC(=O)[C@@H](CCC(=O)N3CCC(Oc4ccc(-n5c(C(=O)NCC)nnc5-c5cc(C(C)C)c(O)cc5O)cc4)CC3)NC(=O)CCNC(=O)[C@@H](CCC(=O)O)NC(=O)[C@@H](CCC(=O)O)NC(=O)[C@@H](CCC(=O)O)NC(=O)COCCOCCNC(=O)[C@H](CCCCNC(=O)CC[C@H](C(=O)O)N(CC)CCN3CCN4CCN(C)CC(=O)[O][Lu]([O]C(=O)C4)[O]C(=O)C3)NC(=O)CCCc3ccc(I)cc3)CC2)cc1	fulfilled
CCNC(=O)c1nnc(-c2cc(C(C)C)c(O)cc2O)n1-c1ccc2c(ccn2CCC2CCN(C(=O)CC[C@H](NC(=O)CC[C@H](C(=O)O)N3CCN4CCN5CCN(CC3)CC(=O)[O][Lu]([O]C(=O)C5)[O]C(=O)C4)C(=O)N3CCC(CCn4ccc5cc(-n6c(C(=O)NCC)nnc6-c6cc(C(C)C)c(O)cc6O)ccc54)CC3)CC2)c1	fulfilled

Turning to the following compound.
Determine whether measured % ID/g uptake, Kidney, 24 h meets or exceeds 10 % ID/g for `CCNC(=O)c1nnc(-c2cc(C(C)C)c(O)cc2O)n1-c1ccc(OC2CCN(C(=O)CCNC(=O)[C@@H](CCC(=O)O)NC(=O)[C@@H](CCC(=O)O)NC(=O)[C@@H](CCC(=O)O)NC(=O)COCCOCCNC(=O)[C@H](CCCCNC(=O)CC[C@H](C(=O)O)N3CCN4CCN5CCN(CC3)CC(=O)[O][Lu]([O]C(=O)C5)[O]C(=O)C4)NC(=O)CCCc3ccc(I)cc3)CC2)cc1`
fulfilled
